Reported MIC Streptococcus pneumoniae (GC 4565) values for a set of compounds
Test system: Streptococcus sp.
Assay: In vitro antibacterial evaluation: minimum inhibitory concentration (MIC), broth dilution method
Format: cell-based
Conditions: Streptococcus pneumoniae (GC 4565); 18 hours at 35° C.
Supply the numeric figure in µg/mL, leaving out any unit text.

CC(C)=CCN1CC(C(O)C2NC(=O)C(C(O)C3CNC(=N)N3)NC(=O)C(Cc3ccc(OC4OC(CO)C(OC5OC6COC7(OC6C(O)C5O)C5CC6CC(C5)CC7C6)C(O)C4O)cc3)NC(=O)C(C(C)c3ccccc3)NC(=O)CNC(=O)C(CO)NC2=O)N(C2OC(CO)C(O)C(O)C2O)C1=N (centres unmarked)    1
CC(c1ccccc1)C1NC(=O)CNC(=O)C(CO)NC(=O)C(C(O)C2CNC(=N)N2C2OC(CO)C(O)C(O)C2O)NC(=O)C(C(O)C2CNC(=N)N2)NC(=O)C(Cc2ccc(OC3OC(CO)C(OC4OC5COC6(CCSCC6)OC5C(O)C4O)C(O)C3O)cc2)NC1=O (centres unmarked)    0.5
COc1ccc2cc(COC3C(OC4C(CO)OC(Oc5ccc(CC6NC(=O)C(C(C)c7ccccc7)NC(=O)CNC(=O)C(CO)NC(=O)C(C(O)C7CNC(=N)N7C7OC(CO)C(O)C(O)C7O)NC(=O)C(C(O)C7CNC(=N)N7)NC6=O)cc5)C(O)C4O)OC(CO)C(O)C3O)ccc2c1 (centres unmarked) [Example 230c]    32
CC(c1ccccc1)C1NC(=O)CNC(=O)C(CO)NC(=O)C(C(O)C2CNC(=N)N2C2OC(CO)C(O)C(O)C2O)NC(=O)C(C(O)C2CNC(=N)N2)NC(=O)C(Cc2ccc(OC3OC(CO)C(OC4OC(COCc5cccs5)C(O)C(O)C4O)C(O)C3O)cc2)NC1=O (centres unmarked)    1
COc1ccc(COCC2OC(OC3C(CO)OC(Oc4ccc(CC5NC(=O)C(C(C)c6ccccc6)NC(=O)CNC(=O)C(CO)NC(=O)C(C(O)C6CNC(=N)N6C6OC(CO)C(O)C(O)C6O)NC(=O)C(C(O)C6CNC(=N)N6)NC5=O)cc4)C(O)C3O)C(O)C(O)C2O)c2ccccc12 (centres unmarked)    0.25
CC(c1ccccc1)C1NC(=O)CNC(=O)C(CO)NC(=O)C(CC2CNC(=N)N2C2OC(CO)C(O)C(O)C2O)NC(=O)C(CC2CNC(=N)N2)NC(=O)C(Cc2ccc(OC3OC(CO)C(OC4OC(CO)C(O)C(OCc5ccc(OCc6ccccc6)cc5)C4O)C(O)C3O)cc2)NC1=O (centres unmarked) [Example 246b]    64
COc1ccc2cc(COC3C(OC4C(CO)OC(Oc5ccc(CC6NC(=O)C(C(C)c7ccccc7)NC(=O)CNC(=O)C(CO)NC(=O)C(CC7CNC(=N)N7C7OC(CO)C(O)C(O)C7O)NC(=O)C(CC7CNC(=N)N7)NC6=O)cc5)C(O)C4O)OC(CO)C(O)C3O)ccc2c1 (centres unmarked) [Example 245c]    64

Let us examine a further case.
Provide Streptococcus sp. MIC Streptococcus pneumoniae (GC 4565) reading for COc1ccc2cc(COC3C(CO)OC(OC4C(CO)OC(Oc5ccc(CC6NC(=O)C(C(C)c7ccccc7)NC(=O)CNC(=O)C(CO)NC(=O)C(CC7CNC(=N)N7C7OC(CO)C(O)C(O)C7O)NC(=O)C(CC7CNC(=N)N7)NC6=O)cc5)C(O)C4O)C(O)C3O)ccc2c1 (centres unmarked) [Example 245a] .
1

* * *

Test system: Enterococcus sp.
Assay: In vitro antibacterial evaluation: minimum inhibitory concentration (MIC), broth dilution method
Type: cell-based
Conditions: broth dilution, 5×10^5 CFU/mL, 18 hours at 35° C.
From the text: […]
observation.type: MIC Enterococccus faecalis (GC 4553) (mg/L)
State the answer as a number, implicitly in mg/L.

Answered examples (4):
CC(c1ccccc1)C1NC(=O)CNC(=O)C(CO)NC(=O)C(C(O)C2CNC(=N)N2C2OC(CO)C(O)C(O)C2O)NC(=O)C(C(O)C2CNC(=N)N2)NC(=O)C(Cc2ccc(OC3OC(CO)C(OC4OC5COC(c6cccs6)OC5C(O)C4O)C(O)C3O)cc2)NC1=O (stereo not shown) [Example 132]    16
N=C1NCC(C(O)C2NC(=O)C(Cc3ccc(OC4OC(CO)C(OC5OC6COC7(OC6C6OC8(OC56)C5CC6CC(C5)CC8C6)C5CC6CC(C5)CC7C6)C(O)C4O)cc3)NC(=O)C(CC3CCCCC3)NC(=O)CNC(=O)C(CO)NC(=O)C(C(O)C3CNC(=N)N3C3OC(CO)C(O)C(O)C3O)NC2=O)N1 (stereo not shown) [Example 106b]    8
CC(c1ccccc1)C1NC(=O)CNC(=O)C(CO)NC(=O)C(C(O)C2CNC(=N)N2C2OC(CO)C(O)C(O)C2O)NC(=O)C(C(O)C2CNC(=N)N2)NC(=O)C(Cc2ccc(OC3OC(CO)C(OC4OC5COC(C6CCCC6)OC5C(O)C4O)C(O)C3O)cc2)NC1=O (stereo not shown) [Example 117]    4
CC(C)=CCCC(C)C1OCC2OC(OC3C(CO)OC(Oc4ccc(CC5NC(=O)C(C(C)c6ccccc6)NC(=O)CNC(=O)C(CO)NC(=O)C(C(O)C6CNC(=N)N6C6OC(CO)C(O)C(O)C6O)NC(=O)C(C(O)C6CNC(=N)N6)NC5=O)cc4)C(O)C3O)C(O)C(O)C2O1 (stereo not shown) [Example 125]    32

Answer with MIC Enterococccus faecalis (GC 4553) of CC(C)=CCCC1OCC2OC(OC3C(CO)OC(Oc4ccc(CC5NC(=O)C(C(C)c6ccccc6)NC(=O)CNC(=O)C(CO)NC(=O)C(C(O)C6CNC(=N)N6C6OC(CO)C(O)C(O)C6O)NC(=O)C(C(O)C6CNC(=N)N6)NC5=O)cc4)C(O)C3O)C(O)C(O)C2O1 (stereo not shown) [Example 123] measured for Enterococcus sp..
16

Send back Enterococcus sp. MIC Enterococccus faecalis (GC 4553) of CC(c1ccccc1)C1NC(=O)CNC(=O)C(CO)NC(=O)C(C(O)C2CNC(=N)N2C2OC(CO)C(O)C(O)C2O)NC(=O)C(C(O)C2CNC(=N)N2)NC(=O)C(Cc2ccc(OC3OC(CO)C(OC4OC5COC(C67CC8CC(CC(C8)C6)C7)OC5C(O)C4O)C(O)C3O)cc2)NC1=O (stereo not shown) [Example 127] only.
4

Param request: MIC Enterococccus faecalis (GC 4553) | system Enterococcus sp. | item CC(c1ccccc1)C1NC(=O)CNC(=O)C(CO)NC(=O)C(C(O)C2CNC(=N)N2C2OC(CO)C(O)C(O)C2O)NC(=O)C(C(O)C2CNC(=N)N2)NC(=O)C(Cc2ccc(OC3OC(CO)C(OC4OC5COC(Cc6ccc(Cl)cc6)OC5C(O)C4O)C(O)C3O)cc2)NC1=O (stereo not shown) [Example 120]
1

For Enterococcus sp., give the measured MIC Enterococccus faecalis (GC 4553) of the entry CC(C)CC1OCC2OC(OC3C(CO)OC(Oc4ccc(CC5NC(=O)C(C(C)c6ccccc6)NC(=O)CNC(=O)C(CO)NC(=O)C(C(O)C6CNC(=N)N6C6OC(CO)C(O)C(O)C6O)NC(=O)C(C(O)C6CNC(=N)N6)NC5=O)cc4)C(O)C3O)C(O)C(O)C2O1 (stereo not shown) [Example 107]
8

* * *

Tested on: Enterococcus sp.
Experiment: In vitro antibacterial evaluation: minimum inhibitory concentration (MIC), broth dilution method
Assay type: cell-based
Settings: strain GC 4558
observation.type: MIC Enterococcus avium (GC 4558) (µg/mL)
Could you give me the number in µg/mL? Just the number is fine.

Would you please look over these solved cases?
COc1cc(C2OCC3OC(OC4C(CO)OC(Oc5ccc(CC6NC(=O)C(C(C)c7ccccc7)NC(=O)CNC(=O)C(CO)NC(=O)C(C(O)C7CNC(=N)N7C7OC(CO)C(O)C(O)C7O)NC(=O)C(C(O)C7CNC(=N)N7)NC6=O)cc5)C(O)C4O)C(O)C(O)C3O2)ccc1[N+](=O)[O-] (stereo not shown)    8
CC(C)=CCOc1cccc(C2OCC3OC(OC4C(CO)OC(Oc5ccc(CC6NC(=O)C(C(C)c7ccccc7)NC(=O)CNC(=O)C(CO)NC(=O)C(C(O)C7CNC(=N)N7C7OC(CO)C(O)C(O)C7O)NC(=O)C(C(O)C7CNC(=N)N7)NC6=O)cc5)C(O)C4O)C(O)C(O)C3O2)c1 (stereo not shown)    16
COc1cccc(C2OC3C(OC4C(CO)OC(Oc5ccc(CC6NC(=O)C(C(C)c7ccccc7)NC(=O)CNC(=O)C(CO)NC(=O)C(C(O)C7CNC(=N)N7C7OC(CO)C(O)C(O)C7O)NC(=O)C(C(O)C7CNC(=N)N7)NC6=O)cc5)C(O)C4O)OC(CO)C(O)C3O2)c1 (single isomer, unassigned) [Example 137a]    64
CCCc1ccc(C2OCC3OC(OC4C(CO)OC(Oc5ccc(CC6NC(=O)C(C(C)c7ccccc7)NC(=O)CNC(=O)C(CO)NC(=O)C(C(O)C7CNC(=N)N7C7OC(CO)C(O)C(O)C7O)NC(=O)C(C(O)C7CNC(=N)N7)NC6=O)cc5)C(O)C4O)C(O)C(O)C3O2)cc1 (stereo not shown)    1
CC(C)=CCCC(C)=CCN=C1NCC(C(O)C2NC(=O)C(C(O)C3CNC(=N)N3)NC(=O)C(Cc3ccc(OC4OC(CO)C(OC5OC6COC7(OC6C(O)C5O)C5CC6CC(C5)CC7C6)C(O)C4O)cc3)NC(=O)C(C(C)c3ccccc3)NC(=O)CNC(=O)C(CO)NC2=O)N1C1OC(CO)C(O)C(O)C1O (stereo not shown)    4

Let us examine a further case.
Could you please provide reported MIC Enterococcus avium (GC 4558) for CCOc1cc(C2OCC3OC(OC4C(CO)OC(Oc5ccc(CC6NC(=O)C(C(C)c7ccccc7)NC(=O)CNC(=O)C(CO)NC(=O)C(C(O)C7CNC(=N)N7C7OC(CO)C(O)C(O)C7O)NC(=O)C(C(O)C7CNC(=N)N7)NC6=O)cc5)C(O)C4O)C(O)C(O)C3O2)ccc1OC (stereo not shown) ? Thanks!
32
